Organism: Rattus norvegicus
method: Radioactivity distribution in tumor of tumor-bearing fischer rat after injection of [18F]fluoro-2-methylpropanoic acid after 5 min
Format: ADME, organism-based
measurement.parameters: in vivo
readout.label: ID/g
Numeric answer plus unit only.

The reported ID/g of the compound CC(N)(C[18F])C(=O)O.Cl (stereo unspecified) was 0.91%

----------
Organism: Rattus norvegicus
method: Radioactivity distribution in brain of tumor-bearing fischer rat after injection of [18F]fluoro-2-methylpropanoic acid after 5 min
Assay type: ADME, organism-based
measurement.parameters: in vivo
readout.label: ID/g (%)
One number for each entry, in %.

// ID/g lookup, molecule = CC(N)(C[18F])C(=O)O.Cl (stereo unspecified) , result: 0.035
